# Protocol description: yeast display, Sf9 membrane polyspecificity reagent, FACS + sequencing; frameworks hold sequencing errors
Assay metric: polyreactivity (PSR sort gate)

Polymer sequence | Assay metric | Endpoint result
QFQLVESGGGLVQAGGSLRLSCAASGSIFIYYAMGWYRQAPGKEREFVAAITRSGGSTFYADSVKGRFTISRDNAKNTVYLQMNSLKPEDTAVYYCATSYEGYYSIIGNKYDYWGQGTQVTVSS | polyreactivity (PSR sort gate) | high polyreactivity
QVQLVESGGGLVQAGGSLRLSCAASGYTFYPYAMGWYRQAPGKERELVAAITTSGGSTYYADSVKGRFTISRDNAKNTVYLQMNSLKPEDTAVYYCARDSLQVFYPYASDDYWGQGTQVTVSS | polyreactivity (PSR sort gate) | low polyreactivity
QVQLVESVGGLVQAGGSLRLSSAASGSIFAYNAMGSYRQAPGKERELVAAITSDDSTNNADSVKGRFTISRDNAKNTVYLQMNSLKPEDTAVYYCAAYYYYTYIIGYDYWGQGTQVTVSS | polyreactivity (PSR sort gate) | low polyreactivity
QVQLVESGGGLVQAGGSLRLSCAASGSTIYTYALGWYRQAPGKERELVAAIRGRGGRTYYADSVKGRFTISRDNAKNTVYLQMNSLKPEDTAVYYCNADGYAYYRATTRFDYWGQGTQVTVSS | polyreactivity (PSR sort gate) | high polyreactivity
QVQLVESGGGLVQAGGSLRLSCAASGSTFYTYAMGWYRQAPGKERELVAAISSGGGTTYADSVKGRFTISRDNAKNTVYLQMNSLKPEDTAVYYCAAVTRDYRNDRRRQRYYYWGQGTQVTVSS | polyreactivity (PSR sort gate) | high polyreactivity
QVQLVESGGGFVQAGGSLRLTCAASALTFQYNAMGWYRQAPGKETELVAAISRSGGRTYYADSVKGRFTISRDNAKNTVYLQMNSLKPEDTAVYYCARRGGVVYSSGYNYLGQGTQVTVSS | polyreactivity (PSR sort gate) | high polyreactivity
QDQHVESGGGLVQAGGSLRISSAASGSIYFYNAMGWYRQAPGQERELVAAITTRGGSTYYADSVKGRFTISRDNAKNTVYLQMNSLKPEDTAVYYCARSSRGKLDYWGQGTQVTVSS | polyreactivity (PSR sort gate) | low polyreactivity
QVQLVESGGGLVQAGGSLRLSCAASGRIFRFYAMGWYRKAPGKERELVAAITRNVGSTFYADSVKGRFTISRDNAKKTVYLQMNSLKPADTAVYYCAAESDYYYRYTFDYWGQGTQVTVSS | polyreactivity (PSR sort gate) | low polyreactivity
QVQLVESGGGLVQAGGSLRLSCAAYGLTFYFYAMGWYRQAPGKERELVAAIDWGGGSTYYADSVKGRFTISRDNAKNTVYLQMNSLKPEDTAVYYCAARGYYYNYDVNYWGQGTQVTVSS | polyreactivity (PSR sort gate) | low polyreactivity
QVQLVESGGGLVQAGGSLRLSCAASGRIFVLYAMGWYRQAPGKERELVAAISTSGGSTYYADSVKGRFTISRDNAKNTVYLQMNSLKPEDTAVYYCAADRSARFLFIQYYPYGMDYWGQGTQVTVSS | polyreactivity (PSR sort gate) | high polyreactivity
QVQLVESGGGLVQAGGSLRLSCAASGSIFAANALGWYRQAPGKERELVAAITSGGGSTYYADSVKGRFTISRDNAKNTVYLQMNSLKPEDTAVYYCAARSLVQDHAYGNNYWGQGTQVTVSS | polyreactivity (PSR sort gate) | low polyreactivity
